IC50 data for Dipeptidyl peptidase 4 (Homo sapiens) follow.
The figure you give is taken to be in nM; do not add the unit.

> print(dat)
                                smiles.code  unit.descriptor  data.value
1  CC(C)(CC(=O)N1CC[C@@H](O)C1)NCC(=O)N1C[C@@H](F)C[C@H]1C#N               nM          21

GET /values?readout=IC50&system=Dipeptidyl peptidase 4 (Homo sapiens)&item= `CC(C)(CC(=O)Nc1ccccn1)NCC(=O)N1C[C@@H](F)C[C@H]1C#N`
19

Which IC50 is reported with Dipeptidyl peptidase 4 (Homo sapiens) for this entry: `CC(C)(CC(=O)N1CCN(S(C)(=O)=O)CC1)NCC(=O)N1C[C@@H](F)C[C@H]1C#N` ?
15

Reported IC50 for Dipeptidyl peptidase 4 (Homo sapiens), given `CC(C)(CC(=O)N1CCCCC1)NCC(=O)N1C[C@@H](F)C[C@H]1C#N` ?
14

Request body: readout IC50, system Dipeptidyl peptidase 4 (Homo sapiens), query `COc1ccc(NC(=O)CC(C)(C)NCC(=O)N2C[C@@H](F)C[C@H]2C#N)nc1` . Return the value.
18

Lookup: IC50 / Dipeptidyl peptidase 4 (Homo sapiens) / `CC(C)(CC(=O)N1CCOCC1)NCC(=O)N1C[C@@H](F)C[C@H]1C#N`
13

For the record `C#C[C@@H]1C[C@H](F)CN1C(=O)CC(C)(C)CC(=O)N[C@H]1C[C@@H]1c1cccc(Cl)c1` , what value of IC50 is listed for Dipeptidyl peptidase 4 (Homo sapiens)?
847

Given the entry `CC(C)(CC(=O)N1CCCC1)NCC(=O)N1C[C@@H](F)C[C@H]1C#N` , what IC50 was observed with Dipeptidyl peptidase 4 (Homo sapiens)?
5

* * *

molecular target: Dipeptidyl peptidase 9 (Homo sapiens, UniProt Q86TI2); assay: Inhibition of DPP9
Sequence (Q86TI2 whole entry): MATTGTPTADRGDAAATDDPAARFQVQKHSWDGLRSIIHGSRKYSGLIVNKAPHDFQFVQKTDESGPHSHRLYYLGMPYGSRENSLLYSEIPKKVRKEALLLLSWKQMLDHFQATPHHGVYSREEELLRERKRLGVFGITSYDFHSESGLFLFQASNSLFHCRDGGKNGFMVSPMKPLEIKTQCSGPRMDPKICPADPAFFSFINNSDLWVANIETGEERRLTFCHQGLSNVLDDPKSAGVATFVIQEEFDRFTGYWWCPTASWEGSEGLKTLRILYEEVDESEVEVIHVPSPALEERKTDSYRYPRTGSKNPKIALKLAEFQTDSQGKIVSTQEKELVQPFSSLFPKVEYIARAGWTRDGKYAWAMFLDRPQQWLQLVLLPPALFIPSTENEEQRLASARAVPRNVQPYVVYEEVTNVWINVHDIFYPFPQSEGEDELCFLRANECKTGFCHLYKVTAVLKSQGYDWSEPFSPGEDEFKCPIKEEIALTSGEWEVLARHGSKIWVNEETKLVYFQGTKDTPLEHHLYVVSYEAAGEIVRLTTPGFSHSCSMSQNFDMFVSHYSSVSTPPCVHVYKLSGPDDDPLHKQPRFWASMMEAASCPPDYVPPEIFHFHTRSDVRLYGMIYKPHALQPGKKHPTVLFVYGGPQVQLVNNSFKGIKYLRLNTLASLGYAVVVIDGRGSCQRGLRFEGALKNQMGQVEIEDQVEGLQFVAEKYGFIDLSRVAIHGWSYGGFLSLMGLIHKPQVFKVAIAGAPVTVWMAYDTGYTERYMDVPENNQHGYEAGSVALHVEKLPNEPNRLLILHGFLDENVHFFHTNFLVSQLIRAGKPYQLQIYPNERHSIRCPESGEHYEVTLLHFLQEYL
pIC50: −log10 of the molar value.
# pIC50 per record follows

# value lookup — system Dipeptidyl peptidase 9 (Homo sapiens, UniProt Q86TI2), readout pIC50, item `C[C@@H]1CCCN1C(=O)CC(C)(C)NCC(=O)N1C[C@@H](F)C[C@H]1C#N`
< 4.70

Hi! What's the reported pIC50 for `CC(C)(CC(=O)N1CC[C@@H](O)C1)NCC(=O)N1CCC[C@H]1C#N` on Dipeptidyl peptidase 9 (Homo sapiens, UniProt Q86TI2)?
< 4.70

// fetch Dipeptidyl peptidase 9 (Homo sapiens, UniProt Q86TI2) pIC50 for CC(C)(CC(=O)N1CCCC1)NCC(=O)N1C[C@@H](F)C[C@H]1C#N [DBPR-108]
< 4.30

// fetch Dipeptidyl peptidase 9 (Homo sapiens, UniProt Q86TI2) pIC50 for `CC(C)(CC(=O)Nc1ccccn1)NCC(=O)N1C[C@@H](F)C[C@H]1C#N`
< 4.70

Hi! What's the reported pIC50 for `CC(C)(CC(=O)N1CCOCC1)NCC(=O)N1C[C@@H](F)C[C@H]1C#N` on Dipeptidyl peptidase 9 (Homo sapiens, UniProt Q86TI2)?
< 4.70

* * *

target: Prolyl endopeptidase FAP (Homo sapiens)
Sequence (Q12884 whole entry): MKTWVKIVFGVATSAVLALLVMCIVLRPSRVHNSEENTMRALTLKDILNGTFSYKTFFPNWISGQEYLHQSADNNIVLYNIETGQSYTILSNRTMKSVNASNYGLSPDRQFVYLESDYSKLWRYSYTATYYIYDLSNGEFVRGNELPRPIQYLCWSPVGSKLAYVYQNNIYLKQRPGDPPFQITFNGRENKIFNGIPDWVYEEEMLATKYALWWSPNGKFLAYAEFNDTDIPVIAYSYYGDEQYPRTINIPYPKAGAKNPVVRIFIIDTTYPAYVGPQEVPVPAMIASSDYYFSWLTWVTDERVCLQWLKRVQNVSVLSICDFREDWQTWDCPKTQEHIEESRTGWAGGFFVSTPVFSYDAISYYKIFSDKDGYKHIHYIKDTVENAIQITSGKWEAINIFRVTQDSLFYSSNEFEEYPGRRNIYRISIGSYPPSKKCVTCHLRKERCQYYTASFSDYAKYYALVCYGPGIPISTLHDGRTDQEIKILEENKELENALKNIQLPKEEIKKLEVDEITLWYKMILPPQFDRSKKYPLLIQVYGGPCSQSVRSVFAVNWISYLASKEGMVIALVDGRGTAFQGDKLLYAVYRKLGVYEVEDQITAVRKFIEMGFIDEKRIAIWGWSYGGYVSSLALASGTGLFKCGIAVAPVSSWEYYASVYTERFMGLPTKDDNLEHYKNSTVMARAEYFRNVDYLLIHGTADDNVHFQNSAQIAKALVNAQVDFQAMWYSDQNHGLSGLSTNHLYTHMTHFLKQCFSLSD
Value kind: IC50

Give the measured IC50 of `C#C[C@@H]1C[C@H](F)CN1C(=O)CC(C)(C)CC(=O)N[C@H]1C[C@@H]1c1cccc(Cl)c1` .
> 20 µM
